Ref: the RNAGym collection of RNA variant scans (doi:10.7554/elife.80360)

B1: Hairpin Ribozyme (parent)
chain: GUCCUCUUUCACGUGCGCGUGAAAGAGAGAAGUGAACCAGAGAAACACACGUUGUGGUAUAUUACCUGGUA

- Variants of: B1
- Method notes: self-cleavage, relative activity (ratio to wild type); higher = more cleavage; co-transcriptional
Reported metric: self-cleavage

Alteration | Reported metric | Experimental value
C46U U55G | self-cleavage | 0.125
A24G A47G | self-cleavage | 0.191
A59U G68C | self-cleavage | 0.0787
U5A A30U | self-cleavage | 0.263
A44U G54U | self-cleavage | 0.0855
U8A A28C | self-cleavage | 0.385
A22G U67G | self-cleavage | 0.247
C66U A71C | self-cleavage | 0.757
G40A G56C | self-cleavage | 0.146
U2A U33A | self-cleavage | 0.077
C12A G21U | self-cleavage | 0.752
G19C A28C | self-cleavage | 0.304
